Data credit: patent US20220002395A1

Target: T1, Plasmodium falciparum histidine-rich protein II (HRP-II) (Plasmodium falciparum, UniProt P05227 22-332)
T1 construct: Coating antigen of all ELISAs; also called HRP-II protein; MA-HRPII Ag protein
T1 sequence (looked up): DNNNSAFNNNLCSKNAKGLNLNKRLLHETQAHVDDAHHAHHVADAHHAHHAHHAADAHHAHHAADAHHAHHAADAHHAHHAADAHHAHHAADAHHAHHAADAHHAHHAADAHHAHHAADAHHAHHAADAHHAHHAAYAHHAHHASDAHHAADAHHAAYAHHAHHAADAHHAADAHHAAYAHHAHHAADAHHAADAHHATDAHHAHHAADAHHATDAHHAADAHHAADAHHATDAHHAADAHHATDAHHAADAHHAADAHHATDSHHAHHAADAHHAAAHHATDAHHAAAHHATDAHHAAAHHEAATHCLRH
Test: indirect ELISA, four antigen coating concentrations
ENDPOINT_LABEL: Kd (nM)

BINDER: WT 1-5 (antibody, mouse IgG2b, kappa, V domains shown, WT as framework) VH: EVQLQQSGPEVVKPGASVKISCKASGYTITEYYMNWVKQSHGKGLEWIGDLNPIQGGTPYQQKFRDKATLTVDKSSNTAYMELRSLTSEDSALYYCTRGAEEYWGQGTTLTVSS VL: DVVLTQTPLSLSVTIGQPASISCKSSQSLLYSQGKIYINWFQQRPGQSPKRLMYQLSKIDPGIPDRFSGSGSETDFTLKISRVEAEDLGVYYCLQATYSPNTFGGGTKLEIKR
ENDPOINT_LABEL: Kd
QUANTITATIVE_RESULT: 0.311
//
BINDER: WT 1-4 (antibody, mouse IgG2b, kappa, V domains shown, WT as framework) VH: EVQLQQSGPEVVKPGASVKISCKASGTTLTEYYMNWVKQSHGKGLEWIGDVNPINGGTPYNQKFRDKATLTVDKSSNTAYMELRSLTSEDSALYYCTKGAEEYWGQGTTLTVSS VL: DVVLTQTPLSLSVTIGQPASISCKSSQSLIYSQGKIYINWFQQRPGQSPKRLMYQISKIEPGIPDRFSGSGSETDFTLKISRVEAEDLGVYYCLQATYTPNTFGGGTKLEIKR
ENDPOINT_LABEL: Kd
QUANTITATIVE_RESULT: 0.582
